TARGET DESC: BTK (Homo sapiens)
Sequence (Q06187 402-655 limits assumed): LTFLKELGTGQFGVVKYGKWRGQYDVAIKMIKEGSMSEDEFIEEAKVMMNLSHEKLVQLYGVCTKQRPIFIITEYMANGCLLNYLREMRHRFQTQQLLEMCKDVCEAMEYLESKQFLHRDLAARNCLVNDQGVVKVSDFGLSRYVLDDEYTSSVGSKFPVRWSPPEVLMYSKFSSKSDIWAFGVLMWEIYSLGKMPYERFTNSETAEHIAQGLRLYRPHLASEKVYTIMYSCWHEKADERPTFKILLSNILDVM
PROCEDURE SUMMARY: biochemical
CONDITION: read-out: BTK inhibition (%), 0.75 uM BTK, […] probe 3l, 15 min preincubation
So I've got a bunch of compounds here, and I need their inhibition at 10 µM values.
Express your answer in %, writing the number without its unit.

Lookup: inhibition at 10 µM lookup needed for "COc1ccc(-c2oc3c(CC=C(C)C)c(O)cc(O)c3c(=O)c2O[C@@H]2O[C@@H](C)[C@H](O)[C@@H](O)[C@H]2O)cc1" , thanks.
Found: 6.2

Lookup: Try the compound "CC(C)c1nc(N(C)S(C)(=O)=O)nc(-c2ccc(F)cc2)c1/C=C/[C@@H](O)C[C@@H](O)CC(=O)O"
Found: -4.7

Lookup: Try the compound "CC1(C)CC[C@]2(C(=O)O)CC[C@]3(C)C(=CC[C@@H]4[C@@]5(C)C[C@@H](O)[C@H](O)C(C)(C)[C@@H]5CC[C@]43C)[C@@H]2C1"
Found: 20.1

Lookup: Try the compound "O=C(O)c1ccc(Cl)cc1O"
Found: -10.9

Lookup: Try the compound Cc1cccc(CN2CCN(C(c3ccccc3)c3ccc(Cl)cc3)CC2)c1 (stereo not shown)
Found: 67.2

Lookup: Try the compound "O=C(NCCCNc1nc(Nc2cccc(NC(=O)N3CCCC3)c2)ncc1I)c1cccs1"
Found: 60

Lookup: Try the compound COC1CCC(N2C(=O)CNc3ncc(-c4ccc(C(C)(C)O)nc4)nc32)CC1 (stereo not shown)
Found: 15.9
